// reported GI50 per item
Test system: BT-549
Experiment: NCI tumour cell line growth inhibition, 48 h
The source made the active and inactive calls. Rule as the data show it: active = GI50 up to about 1.1 µM and inactive = higher.

Consider the following illustrative entries.
Cc1cc2c(C)cc(=O)[nH]c2cc1N : > 100 µM (inactive)
C#CCOCCCC(=O)O : > 100 µM (inactive)
CCCCC1NC=Nc2c1ccc1c2[nH]c2ccccc21 (stereo not drawn) : 2.02 µM (inactive)

Now take the following compound into account.
Req: API: value(readout= GI50, system= BT-549, query= O=c1c2c([N+](=O)[O-])cccc2nc2[nH]c3ccccc3n12 )
Resp: 20.5 µM (inactive)

====

Tested on: Hs-578T
Assay: NCI tumour cell line growth inhibition, 48 h
Activity calls are given as the source filed them. Cut-off read from the data, not from the text of the source: active = GI50 up to about 1.1 µM and inactive = higher.
Please state which outcome applies, choosing from T = active, F = inactive

CC(=O)Nc1ccc(CNc2cc(=O)[nH]c(=O)[nH]2)cc1 : F
CN(C)c1n/c(=N/Cc2ccccn2)ss1 : F
CC1=NN(c2nc(N)nc(/C(C#N)=C/c3cccn3-c3cc(Cl)cc(Cl)c3)n2)C(C)(C)C1 : F
CCOC(=O)C(NC(=O)CC)(Nc1ccc(F)c(Cl)c1)C(F)(F)F (configuration not stated) : F
CCC(C#N)(c1ccccc1)N(CCc1ccccc1)C(=O)c1ccccc1 (configuration not stated) : F

Req: Entry CC(C)CCC1(O)O[C@H]2C[C@H]3[C@@H]4CCC5CC(=O)C=C[C@]5(C)[C@H]4CC[C@]3(C)[C@H]2[C@@H]1C (some centres not stated) : call = ?
Resp: F

Req: Recorded test outcome, item CC(=O)OCC1OC(n2cnc3nc(Br)[nH]c(=O)c32)C(OC(C)=O)C1OC(C)=O (configuration not stated)
Resp: F

Req: Identify the outcome logged in this assay for the compound shown: COc1cccc2c1C(=O)c1ccc3cc(CCl)cc(O)c3c1C2=O
Resp: T

Req: Given O=C(NN1C(=O)C(Cl)C1c1ccc(Cl)cc1)c1c(Cl)c(Cl)c(Cl)c(Cl)c1-c1nc2ccccc2[nH]1 (configuration not stated) , state the outcome it received in this test.
Resp: F

====

Measured GI50 of individual entries
Tested on: RPMI-8226
Assay: NCI tumour cell line growth inhibition, 48 h
The source made the active and inactive calls. Cut-off read from the data, not from the text of the source: active = GI50 up to about 1.1 µM and inactive = higher.

CSc1c(C#N)c(O)nc(N)c1C(=O)Nc1ccc(Cl)cc1 : 11.2 µM (inactive)
COC(=O)C1CCC(N2C(=O)CCC2C(=O)OC)=N1 (stereo unspecified) : > 100 µM (inactive)
Cc1cc(N(CCC#N)CCC#N)ccc1CC1N=C(c2ccccc2)OC1=O (stereo unspecified) : > 100 µM (inactive)
COc1cccc(C(=O)C2C(=O)N(C)CCc3ccccc32)c1OC (stereo unspecified) : > 100 µM (inactive)
Cn1c2ccccc2n2c3ccccc3c(=S)c(C#N)c12 : > 100 µM (inactive)

Req: Consider the compound shown here: CCOC(=O)/C(=C\NC(=S)Nc1ccc(OCC)cc1)C(=O)c1ccccc1 What is its recorded GI50?
Resp: > 100 µM (inactive)

Req: I'd like to know its GI50. The compound in question is NN(CC(=O)O)CC(=O)O
Resp: > 100 µM (inactive)

Req: # lookup: GI50 of CCOC(=O)n1[nH]c(=O)n(-c2ccccc2)c1=O
Resp: > 100 µM (inactive)

====

Tested on: DU-145
Assay: NCI tumour cell line growth inhibition, 48 h
Active and inactive are the calls of the source. Rule as the data show it: active = GI50 up to about 1.1 µM and inactive = higher.
Allowed answers: Yes = active, No = inactive

O=C(CN1CCCC1)Nc1ccc2sc3ccccc3c(=O)c2n1 : No
CN(C)C(=S)NC(=S)Nc1ccc2ccccc2c1 : No
O=c1ccn(C2OC(CO)C(O)C2[Se]c2ccccc2)c(=O)[nH]1 (stereo unspecified) : No

Req: Returns: the outcome recorded for O/N=C1\SC(=N\O)/C(=N/O)S\C1=N/O in this assay.
Resp: No

Req: Please indicate how the test categorized O=C1OCC2=C1C(c1ccc(Cl)cc1)c1cc3c(cc1O2)OCO3 (stereo unspecified) .
Resp: No

Req: Call for entry C=C(C)C#CC(O)(C(=O)OC1CCN(C)CC1)C(C)C (stereo unspecified) :
Resp: No

Req: Hi team, can someone confirm the assay call for OC1(C(F)(F)F)OCCN=C1C(F)(F)F (stereo unspecified) ?
Resp: No

Req: Query: recorded result category for COc1cc(/C=C/C(=O)OCCc2ccccc2)ccc1O in this test
Resp: No

Req: Recorded call for C/C(=N\NC(=S)N1CCCCCC1)c1cccc2cccnc12 ?
Resp: No

====

Test system: LXFL 529
Test: NCI tumour cell line growth inhibition, 48 h
Active and inactive are the calls of the source. Rule as the data show it: active = GI50 up to about 1.1 µM and inactive = higher.
Allowed answers: active, inactive

Req: I would be grateful if you could indicate the recorded call for C=CCC(N(C)C(=O)[C@H](Cc1ccccc1)NC(=O)OCc1ccccc1)P(=O)(Oc1ccccc1)Oc1ccccc1 (some centres undefined) .
Resp: inactive

Req: In this assay, the call recorded for CC(C)(Oc1ccc(C(=O)c2ccc(Cl)cc2)cc1Cl)C(=O)Nc1c(Cl)cccc1Cl was what?
Resp: inactive

Req: Lab log entry: COc1ccc(-c2csc(=[N+]3CCCCC3)s2)cc1 — outcome as called in the assay?
Resp: inactive

Req: In this assay, the call recorded for O=C(O)C1=C(C(=O)O)Oc2ccccc2O1 was what?
Resp: inactive

Req: Kindly provide the recorded test outcome for the following molecule: CCCCCCCCCCCc1nnc(N)o1
Resp: inactive

====

Test system: HCT-15
Experiment: NCI tumour cell line growth inhibition, 48 h
Where a SMILES comes first, the peptide text is derived from it.
// assign condition met if GI50 falls strictly below 20 µM, else condition not met (ties count as condition not met)

Worked set:
CN1C(=O)CC2(C)c3cc(C=O)ccc3N(C)C12 (configuration not stated) : condition not met
CC(=O)c1c(CO[N+](=O)[O-])[n+]([O-])c2ccccc2[n+]1[O-] : condition not met
O=C1COc2cccnc2N1CCCCO : condition not met
CC1(C)CCCC2(C)[C@@H]1CC[C@@]13CC(=O)[C@@](C)(CC[C@@H]21)C3 (some centres not stated) : condition not met
Cc1ccc(NC(=O)C(=O)CC(=O)c2sc(Nc3c(C)cccc3C)nc2C)cc1C : condition not met

Req: Check if GI50 falls below 20 µM for O=C1c2ccccc2C(=O)C2C1C1C(=O)c3ccccc3C(=O)C21 (configuration not stated) .
Resp: condition met

Req: Here's an entry: CC(=O)NCCCCNCCCNC(C)=O . Is its GI50 below 20 µM?
Resp: condition not met

Req: Strictly below 20 µM in GI50? NCCCCC(N)C(=O)N1CCN(c2nc(N3CCCC3)c3nc(Cl)c(NCc4ccccc4)nc3n2)CC1 (configuration not stated)
Resp: condition met

Req: Would you kindly verify if GI50 of COc1cccc2c1C(=O)c1ccc3cc(CCl)cc(O)c3c1C2=O is strictly less than 20 µM?
Resp: condition met

Req: # check: GI50 < 20 µM for O=C1Cc2nc(CO)c(CO)c(CO)c2CO1
Resp: condition not met

Req: GI50 strictly < 20 µM for this molecule? NCCN1C(=O)c2ccccc2C1(O)c1ccc(Cl)cc1 (configuration not stated)
Resp: condition not met

Req: API: query returns whether the molecule falls strictly under 20 µM in GI50. Query: CCN(CC)CCC(=O)c1ccc(Oc2ccc(F)cc2)cc1
Resp: condition met

Req: Just wondering, is GI50 of COC(=O)CC(C#N)(OP1(=O)OC(c2ccccc2)C(C)N1C)c1ccccc1 (configuration not stated) below 20 µM?
Resp: condition not met

Req: Please check: GI50 for NC(=O)C1CCCN1C(=O)C(N)Cc1ccccc1 (stereo not drawn) (H-Phe-Pro-NH2; configuration not given here) , strictly under 20 µM or not?
Resp: condition not met

Req: # TODO verify GI50 < 20 µM strictly for this molecule: N#CCCN(CCC#N)c1ccc(/C=C(\NC(=O)c2cc([N+](=O)[O-])ccc2Cl)C(=O)Nc2ccccc2)cc1
Resp: condition met

Req: Quick check: does Cc1cc(C)nc(NS(=O)(=O)c2ccc(Nc3c4ccccc4nc4c(C(=O)NC(CO)(CO)CO)cccc34)cc2)n1 have GI50 under 20 µM?
Resp: condition not met

Req: Does the reported GI50 of COC(=O)CNC(=O)CSc1nnc(COc2ccc(Cl)cc2)n1-c1ccccc1 stay below 20 µM?
Resp: condition not met

Req: # TODO verify GI50 < 20 µM strictly for this molecule: Cc1ccc2nc3c(Cl)cc(=O)cc-3sc2c1
Resp: condition met

Req: Input Cc1nc2ccc(S(=O)(=O)O)cc2c(=O)n1-c1ccc(C(=O)NN2C(=O)C(Cl)C2c2ccccc2O)cc1 (configuration not stated) ; condition: GI50 strictly below 20 µM. Does it hold?
Resp: condition not met

Req: hey, is GI50 for Cc1cccc(C(C)C)c1NC(=O)C(=O)CC(=O)c1sc(Nc2ccccc2Cl)nc1C lower than 20 µM or not?
Resp: condition not met

Req: Input O=C1NC(=S)N/C1=C\c1cc2c(=O)c3ccccc3sc2s1 ; condition: GI50 strictly below 20 µM. Does it hold?
Resp: condition not met

Req: Lab note: GI50 threshold 20 µM. Does this molecule come in strictly under it? COC(=O)c1ccc2c(O)c(O)ccc2c1
Resp: condition met
